The values you see were collected from PubChem BioAssay (EPA / NIEHS).

Read-out: Interferon-gamma inducible Protein 10 (IP10), CXCL10 (gene 3627)
ASSAY METHOD TEXT: BSK_BE3C_IP10: BioMAP Diversity Plus: BE3C Assay for Interferon-gamma inducible Protein 10 (IP10) Biomarker Activity (AID 2283034)
EXPERIMENTAL CONDITIONS: primary human bronchial epithelial cells; actives raise or lower the signal
Activity calls are given as the source filed them. How the source made its calls: active means hit-call score of the fitted dose curve at least 0.9, where 1 is the maximum; inactive means score below 0.9.
METRIC NAME: AC50

Worked set:
1. C#CC1(O)CC[C@H]2[C@@H]3CCC4=CCCC[C@@H]4[C@H]3CC[C@@]21C (some centres undefined) :: 34.8 µM (active)
2. O=C(c1ccc(O)cc1)c1ccc(O)cc1O :: inactive
3. CCO[Si](C)(OCC)OCC :: inactive
4. N#[N+]c1ccc2c(S(=O)(=O)[O-])cccc2c1O :: inactive
5. C/C=C\C/C=C/CCCCCCCCOC(C)=O :: 20 µM (active)

Consider the record given below.
Input: Entry "S=C(NC1CCCCC1)NC1CCCCC1" has what AC50?
Output: inactive

----------
ASSAY METHOD TEXT: ATG_PBREM_CIS: Attagene CIS-FACTORIAL HepG2 Assay for human Phenobarbital-responsive Enhancer Module (PBREM) (AID 2282955)
EXPERIMENTAL CONDITIONS: HepG2 PBREM cis-reporter, Attagene multiplexed transcription; actives raise or lower the signal
Active and inactive are the calls of the source. How the source made its calls: active means hit-call score of the fitted dose curve at least 0.9, where 1 is the maximum; inactive means score below 0.9.
A correct response names exactly one class from active, inactive

1) C=C(C)C(=O)OCCOc1ccccc1 :: inactive
2) CO[Si](OC)(OC)c1ccccc1 :: inactive
3) NC(=O)OCC(COC(N)=O)c1ccccc1 :: inactive
4) O=Nc1ccc(O)cc1 :: inactive
5) CCOCC(=O)O :: inactive
6) Cc1oncc1C(=O)Nc1ccc(C(F)(F)F)cc1 :: active

Input: Tell me the recorded outcome of this test for "O=S(=O)(O)c1ccccc1C=Cc1ccc(-c2ccc(C=Cc3ccccc3S(=O)(=O)O)cc2)cc1" .
Output: inactive

Input: Tell me the recorded outcome of this test for "O=C(C=Cc1ccccc1)OCc1ccccc1" .
Output: inactive

Input: Tell me the recorded outcome of this test for "Cc1cccc(OCCOc2cccc(C)c2)c1" .
Output: inactive

Input: Tell me the recorded outcome of this test for "CC=CC(=O)N(CC)c1ccccc1C" .
Output: inactive

Input: Tell me the recorded outcome of this test for "Cc1ccc2oc(=O)ccc2c1" .
Output: inactive

Input: Tell me the recorded outcome of this test for "CCCCCCCCc1ccc(Nc2ccc(CCCCCCCC)cc2)cc1" .
Output: inactive

Input: Tell me the recorded outcome of this test for "C[C@]12C=CC(=O)C=C1CC[C@@H]1[C@@H]2[C@@H](O)C[C@@]2(C)[C@H]1CC[C@]2(O)C(=O)CO" .
Output: inactive

----------
MEASURED ON: Aryl hydrocarbon receptor (Homo sapiens)
ASSAY METHOD TEXT: ATG_Ahr_CIS: Attagene CIS-FACTORIAL HepG2 Assay for human Aryl Hydrocarbon Receptor (Ahr) (AID 2282930)
EXPERIMENTAL CONDITIONS: HepG2 AhR cis-factorial reporter transcription; actives raise or lower the signal
Active and inactive are the calls of the source. The calls were made as follows: active = hit-call score of the fitted dose curve at least 0.9, where 1 is the maximum; inactive = score below 0.9.
A correct response names exactly one class from y for active, n for inactive

These solved cases illustrate the format of a correct answer.
1) CCCCCCC1(C)CCC(=O)O1 (centres undefined) :: y
2) CC(=O)CC(N)=O :: n

Input: Tell me the recorded outcome of this test for "CCCCCCCCCCc1ccccc1" .
Output: n

Input: Tell me the recorded outcome of this test for "Cc1cnc(NC(=O)C2=C(O)c3ccccc3S(=O)(=O)N2C)s1" .
Output: y

Input: Tell me the recorded outcome of this test for "O=C(Nc1ccccc1)c1ccccc1O" .
Output: y

Input: Tell me the recorded outcome of this test for NC(=O)C1CO1 (centres undefined) .
Output: n

Input: Tell me the recorded outcome of this test for "O=C(Cl)c1cc(C(=O)Cl)cc(C(=O)Cl)c1" .
Output: y

Input: Tell me the recorded outcome of this test for "CCCCCCCCCCCCCCCC[n+]1ccccc1" .
Output: n

Input: Tell me the recorded outcome of this test for "CCc1c(C(=O)O)c(=O)cnn1-c1ccc(Cl)cc1" .
Output: n

----------
ASSAY METHOD TEXT: CEETOX_H295R_DOC: CeeTox H295R High-throughput Steroidogenesis Assay for DOC (AID 2283439)
EXPERIMENTAL CONDITIONS: actives raise or lower the signal
Method: CEETOX_H295R is a cell-based, multiplexed-readout assay that uses H295R, a human adrenal gland cell line, with measurements taken at 48 hours after chemical dosing in a 96-well plate.CEETOX_H295R_DOC is one of 23 assay component(s) measured or calculated from the CEETOX_H295R assay. […] This assay endpoint, CEETOX_H295R_DOC, was analyzed with bidirectional fitting relative to DMSO as the negative control and baseline of activity. […]
Calls of active or inactive are those of the source. The calls were made as follows: active = hit-call score of the fitted dose curve at least 0.9, where 1 is the maximum; inactive = score below 0.9.
METRIC NAME: AC50

Worked set:
1) Cc1ccc(C(C)c2ccc(C)c(C)c2)cc1C :: inactive
2) CCCCNc1ccc(NCCCC)c2c1C(=O)c1ccccc1C2=O :: inactive
3) CCOC(=O)Cc1cccc2ccccc12 :: 30.8 µM (active)
4) CN(C)c1ccc(C(=N)c2ccc(N(C)C)cc2)cc1 :: inactive
5) CCCCCCCCCCCCCOP(=O)(O)O :: inactive
6) C=COCCCC :: inactive

Input: Entry "Oc1ccc(Cl)cc1Cc1cc(Cl)ccc1O" has what AC50?
Output: inactive

----------
MEASURED ON: Cellular tumor antigen p53 (Homo sapiens)
ASSAY METHOD TEXT: ATG_p53_CIS: Attagene CIS-FACTORIAL HepG2 Assay for human p53 Transcription Factor (AID 2282994)
EXPERIMENTAL CONDITIONS: HepG2 p53 cis-element reporter, Attagene mRNA; actives raise or lower the signal
Activity calls are given as the source filed them. Rule for the calls: active = hit-call score of the fitted dose curve at least 0.9, where 1 is the maximum; inactive = score below 0.9.
METRIC NAME: AC50

Worked set:
1) CCCOC(=O)CCCCC(=O)OCCC :: inactive
2) c1ccc(CNCc2ccccc2)cc1 :: inactive
3) C=CC(=O)OCCOC(=O)C=C :: 48 µM (active)
4) CC(C)=CCC/C(C)=C\C#N :: inactive
5) COC(=O)c1sccc1S(N)(=O)=O :: inactive
6) COC(F)(F)C(F)(C(F)(F)F)C(F)(F)F :: inactive
7) CN(C)CCCN(C)C :: inactive
8) CCOC(=O)N1CCC(=C2c3ccc(Cl)cc3CCc3cccnc32)CC1 :: 7.13 µM (active)

Consider the record given below.
Input: Entry "NNC(=O)c1cccc(C(=O)NN)c1" has what AC50?
Output: inactive

----------
ASSAY METHOD TEXT: ATG_NF_kB_CIS: Attagene CIS-FACTORIAL HepG2 Assay for human Nuclear Factor Kappa B (NF-kB) (AID 2282991)
EXPERIMENTAL CONDITIONS: HepG2 Attagene cis-factorial NF-kB reporter mRNA; actives raise or lower the signal
Activity calls are given as the source filed them. Rule for the calls: active = hit-call score of the fitted dose curve at least 0.9, where 1 is the maximum; inactive = score below 0.9.
A correct response names exactly one class from active, inactive

Input: Tell me the recorded outcome of this test for "CCc1ccc2c(c1)C(=O)c1ccccc1C2=O" .
Output: inactive

----------
ASSAY METHOD TEXT: BSK_SAg_PBMCCytotoxicity: PBMC Cytotoxicity Assessment in the BioMAP Diversity Plus: SAg Assay (AID 2283093);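 further: PBMC viability measured as Alamar Blue reduction fluorescence at 546/580 nm; fitted both ways against DMSO so a hit may be loss or gain of signal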
EXPERIMENTAL CONDITIONS: primary human HUVEC with PBMC
Active and inactive are the calls of the source. How the source made its calls: active means hit-call score of the fitted dose curve at least 0.9, where 1 is the maximum; inactive means score below 0.9.
A correct response names exactly one class from active, inactive

These solved cases illustrate the format of a correct answer.
1) c1ccc(-c2ccccn2)nc1 :: inactive
2) CCOC(=O)c1ccccc1C(=C1C=C(Br)C(=O)C(Br)=C1)c1cc(Br)c(O)c(Br)c1 :: inactive
3) CC(C)C(=O)C(C)C :: inactive

Input: Tell me the recorded outcome of this test for "O=C1CCCN1CCO" .
Output: inactive

----------
Read-out: Thrombomodulin, THBD (gene 7056)
ASSAY METHOD TEXT: BSK_3C_Thrombomodulin: BioMAP Diversity Plus: 3C Assay for Thrombomodulin Biomarker Activity (AID 2283029)
EXPERIMENTAL CONDITIONS: primary human endothelial cells (HUVEC); actives raise or lower the signal
Active and inactive are the calls of the source. The calls were made as follows: active = hit-call score of the fitted dose curve at least 0.9, where 1 is the maximum; inactive = score below 0.9.
A correct response names exactly one class from active, inactive

These solved cases illustrate the format of a correct answer.
1. O=C(c1ccc(O)cc1)c1ccc(O)cc1O :: inactive
2. S=C(NC1CCCCC1)NC1CCCCC1 :: inactive

Input: Tell me the recorded outcome of this test for "O=C(Nc1ccccc1SSc1ccccc1NC(=O)c1ccccc1)c1ccccc1" .
Output: active

Input: Tell me the recorded outcome of this test for C#CC1(O)CC[C@H]2[C@@H]3CCC4=CCCC[C@@H]4[C@H]3CC[C@@]21C (some centres undefined) .
Output: active

Input: Tell me the recorded outcome of this test for CCCCC(CC)COCC1CO1 (centres undefined) .
Output: inactive

Input: Tell me the recorded outcome of this test for "Nc1ccc(N)c(Cl)c1" .
Output: inactive

Input: Tell me the recorded outcome of this test for "O=C1CCCN1CCO" .
Output: inactive

Input: Tell me the recorded outcome of this test for "CCO[Si](CCCN=C=O)(OCC)OCC" .
Output: inactive

Input: Tell me the recorded outcome of this test for "N#[N+]c1ccc2c(S(=O)(=O)[O-])cccc2c1O" .
Output: inactive
